- Tested on: SNB-19
- PROTOCOL: NCI tumour cell line growth inhibition, 48 h
The source made the active and inactive calls. Rule as the data show it: active = GI50 up to about 1.1 µM and inactive = higher.
Use one of these outcomes when replying: active, inactive

Lookup: Write down the call the test reported for this compound. Item: COC(=O)CC(SCCO)SCCO
Found: inactive

Lookup: What outcome does the record of this test show for C=CC(=O)N1C/C(=C\c2ccc(Cl)cc2)C(=O)/C(=C/c2ccc(Cl)cc2)C1 ?
Found: active

Lookup: What outcome does the record of this test show for O=C(N/C(=C\c1ccc(/C=C(\NC(=O)c2ccccc2)c2nc3ccccc3s2)cc1)c1nc2ccccc2s1)c1ccccc1 ?
Found: inactive

Lookup: Hi, do you know how Cc1cc(/N=N/c2c(O)ccc3ccccc23)ccc1/N=N/c1cccc([N+](C)(C)C)c1 came out in this test?
Found: inactive

Lookup: Answer briefly: the call reported for COc1cc(Cn2c3c(c4c(CN(C)C)c(O)ccc42)C(=O)c2ccccc2C3=O)cc(OC)c1 in this assay.
Found: inactive

Lookup: State the result this test recorded for CC1(C)O[C@H]2OC(CO)C(OS(C)(=O)=O)[C@H]2O1 (stereo partly specified) .
Found: inactive

Lookup: Test call for this compound, please: CC(C)(CO)NC(=O)c1cccc(C(=O)NC(C)(C)CO)c1Br
Found: inactive

Lookup: Any idea what this test logged for CCCCN(CCCC)C(=O)C(=O)C(C(=O)C(=O)OC)c1nc2ccccc2o1 (stereo unspecified) ?
Found: inactive

Lookup: What call does the record list for COc1ccc(CNc2nc3cc(C(F)(F)F)ccc3nc2C(=O)O)cc1OC ?
Found: inactive

Lookup: Recorded test call requested for COc1cc(C2C(Cl)C(=O)N2NC(=O)c2ccc(NC(C)=O)cc2)cc(OC)c1OC (stereo unspecified)
Found: inactive

Lookup: GET /call?item= N=c1oc2ccc([N+](=O)[O-])cc2cc1C(=O)Nc1ccccn1 returns the recorded outcome of this test.
Found: inactive

Lookup: Please let me know the test result on file for COc1ccc(C2c3cc4c(cc3OC(NNC(N)=O)C2C)OCO4)cc1 (stereo unspecified) .
Found: inactive

Lookup: What outcome does the record of this test show for NC(=O)C(=CN1CC(=O)NC1=S)C(N)=O ?
Found: inactive

Lookup: Identify the outcome logged in this assay for the compound shown: CCOC(=O)c1csc(NC(=O)C(C)N2CCOCC2)n1 (stereo unspecified)
Found: inactive

Lookup: Per the assay record, what outcome was assigned to C[n+]1ccc(Nc2ccc(NC(=O)c3ccc(Nc4cc[n+](C)c5ccc([N+](=O)[O-])cc45)cc3[N+](=O)[O-])cc2)cc1 ?
Found: inactive

Lookup: Any idea what this test logged for CC(C)[C@](O)(C(=O)OCC1=CC[N+]2([O-])CC[C@@H](O)[C@@H]12)[C@H](C)O (stereo partly specified) [INDICINE N-OXIDE] ?
Found: inactive

Lookup: Test call for this compound, please: Nc1nc(O)c2[nH]nnc2n1
Found: inactive

Lookup: Lab log entry: COc1ccc2cccc(C(=N)c3ccc(C)c4c3CCC4)c2c1 — outcome as called in the assay?
Found: inactive

Lookup: What was the test verdict on OC1C#CCSCC#C/C=C\1 (stereo unspecified) ?
Found: inactive

Lookup: Query: recorded result category for C=CCn1c(=O)c2ccccc2[n+]2c(C)c(C(=O)OCC)sc12 in this test
Found: inactive

Lookup: Which outcome was assigned to COc1ccc2c(c1)CCN1CCc3ccccc3CC21 (stereo unspecified) in this test?
Found: inactive

Lookup: Outcome? CCC1CN2CCc3cc(OC)c(OC)cc3C2CC1CC1c2cc(OC)c(OC)cc2CCN1C(=O)C(N)Cc1ccccc1.[O-][Cl+3]([O-])([O-])O (stereo unspecified)
Found: inactive

Lookup: Which outcome was entered for the compound COC(=O)C(=O)C(C(=O)C(=O)Nc1ccccc1C(N)=O)c1nc2ccc(Cl)cc2nc1O (stereo unspecified) in this test?
Found: inactive

Lookup: Hi team, can someone confirm the assay call for CCCC(O)c1ccc2[nH]c3c(C)cc([N+](=O)[O-])c(C)c3c2c1 (stereo unspecified) ?
Found: inactive

Lookup: Outcome logged for Cc1ncc([N+](=O)[O-])n1CCNC(=O)CCCCn1ccnc1[N+](=O)[O-] in this assay:
Found: inactive

Lookup: Which outcome was entered for the compound C(=C(c1ccc(OC2CCCCO2)cc1)c1ccc(OC2CCCCO2)cc1)c1ccccc1 (stereo unspecified) in this test?
Found: inactive

Lookup: Answer briefly: the call reported for Cc1ccc(NCC(=O)N2CC(=O)Nc3ccccc32)cc1 in this assay.
Found: inactive

Lookup: Hi, sorry to bother you, what did the test record for COc1cccc(/C=C\c2ccc(O)cc2)c1 ?
Found: inactive

Lookup: Could you check what this test reported for C=CCOC(C)(C)C1=CCC(C)CC1 (stereo unspecified) ?
Found: inactive

Lookup: In this assay, the call recorded for Cc1nc(-n2nc(-c3ccccc3)cc2-c2ccccc2)sc1C(=O)CC(=O)C(=O)Nc1ccc(O)cc1 was what?
Found: inactive

Lookup: Please indicate how the test categorized O=C(O)c1nc2cc(C(F)(F)F)ccc2nc1Nc1ccc(F)cc1 .
Found: inactive

Lookup: For this compound, state the assay outcome: N=C(N)NS(=O)(=O)c1ccc(NC(=O)c2cccc3c(NNc4ccc(C(=O)O)cc4)c4ccccc4nc23)cc1
Found: inactive

Lookup: In this assay, the call recorded for CCN(CC)CCCC(C)Nc1ccnc2cc3ccccc3cc12 (stereo unspecified) was what?
Found: inactive

Lookup: Assay outcome for CCOC(=O)c1cccc(/N=N/c2nc[nH]c2/C=C/C(=O)OC)c1 : what was it?
Found: inactive

Lookup: What outcome does the record of this test show for O=C1CC(c2ccccc2)C2(C(=O)NC(=S)NC2=O)C(c2ccccc2)C1 (stereo unspecified) ?
Found: inactive

Lookup: Outcome logged for C=C1CC(OC)(C(OC)C(=O)N(C)[C@H]2OCO[C@H]3C2O[C@H](C[C@@H](COC)OC)C(C)(C)C3OC)O[C@H](C)[C@@H]1C (stereo partly specified) in this assay:
Found: inactive

Lookup: Please state the recorded outcome for this compound: COCc1c(CO)cnc(C)c1OC1OC(CO)C(O)C(O)C1O (stereo unspecified)
Found: inactive

Lookup: For S=C(c1c[nH]c2ccccc12)N1CCN(Cc2ccccc2)CC1 , which call appears in the assay record?
Found: inactive

Lookup: Hi team, can someone confirm the assay call for Cc1c(CCOC=O)c(=O)[nH]c2nncn12 ?
Found: inactive

Lookup: What did the test return for C[N+](C)([O-])CCCNc1ccnc2cccc([N+](=O)[O-])c12 ?
Found: inactive

Lookup: Please state the recorded outcome for this compound: Nc1nc(OCc2ccccc2)c2nc[nH]c2n1
Found: inactive
